Molecular target: T1, LRP6 E1E2 protein (human, UniProt O75581 20-630, limits assumed)
T1 construct: domain: E1E2
T1 sequence (looked up): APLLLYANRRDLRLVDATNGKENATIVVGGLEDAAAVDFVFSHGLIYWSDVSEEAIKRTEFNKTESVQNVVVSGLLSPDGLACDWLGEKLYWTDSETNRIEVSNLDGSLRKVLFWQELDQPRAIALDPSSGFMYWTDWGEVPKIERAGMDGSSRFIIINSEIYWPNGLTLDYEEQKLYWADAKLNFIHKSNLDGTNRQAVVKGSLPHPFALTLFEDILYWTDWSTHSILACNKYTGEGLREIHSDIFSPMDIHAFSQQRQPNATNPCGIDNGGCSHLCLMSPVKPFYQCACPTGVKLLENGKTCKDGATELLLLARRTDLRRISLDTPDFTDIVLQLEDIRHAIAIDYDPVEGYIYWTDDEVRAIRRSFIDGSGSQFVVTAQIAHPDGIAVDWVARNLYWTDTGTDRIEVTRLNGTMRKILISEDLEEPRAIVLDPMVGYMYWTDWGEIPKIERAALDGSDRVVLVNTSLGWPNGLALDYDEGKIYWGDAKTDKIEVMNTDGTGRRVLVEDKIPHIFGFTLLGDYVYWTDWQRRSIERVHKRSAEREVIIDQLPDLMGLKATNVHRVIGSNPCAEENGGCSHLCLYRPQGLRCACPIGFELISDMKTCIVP
Assay: spot phage ELISA; further: unit not given here
ASSAY READOUT: ELISA
The answer should be a number; do not append a unit.

Worked set:
# BINDER, READING
data = [
    ("GCSNYVKRCKQDSDCLAGCVCSPGGRCG (designed binder) [LRP6_CKP17]", 3.09),
    ("GCRSNKLREARGCKQDSDCLAGCVCGSRQDCG (designed binder) [LRP6_CKP12]", 0.6),
    ("GCVSNRVNKGCKQDSDCLAGCVCGPNGFCG (designed binder) [LRP6_CKP7]", 3.3),
]

Lab book: ELISA of GCNRIRNSCKQDSDCLAGCVCGRGDYCG (designed binder) [LRP6_CKP15] noted as 2.03

Lab book: ELISA of GCENRTKGCKQDSDCLAGCVCGFRGTCG (designed binder) [LRP6_CKP20] noted as 3.1

Lab book: ELISA of GCGSNKIRPRCKQDSDCLAGCVCGPNDFCG (designed binder) [LRP6_CKP14] noted as 3.18

Lab book: ELISA of GCRSNRIRCKQDSDCLAGCVCYGHGDCG (designed binder) [LRP6_CKP11] noted as 2.65
